The measurements presented in this section are drawn from patent US12157746B2.

Overview of reported pIC50 across a group of compounds:
molecular target: human TLR8 (Homo sapiens, UniProt Q9NR97); assay: HEK293-Blue-hTLR-8 cells assay; conditions: HEK293-Blue-hTLR8 cells, R848 stimulation, 20 hrs, SEAP reporter; read-out: HEK/hTLR8 IC50
Sequence (Q9NR97 27-1041): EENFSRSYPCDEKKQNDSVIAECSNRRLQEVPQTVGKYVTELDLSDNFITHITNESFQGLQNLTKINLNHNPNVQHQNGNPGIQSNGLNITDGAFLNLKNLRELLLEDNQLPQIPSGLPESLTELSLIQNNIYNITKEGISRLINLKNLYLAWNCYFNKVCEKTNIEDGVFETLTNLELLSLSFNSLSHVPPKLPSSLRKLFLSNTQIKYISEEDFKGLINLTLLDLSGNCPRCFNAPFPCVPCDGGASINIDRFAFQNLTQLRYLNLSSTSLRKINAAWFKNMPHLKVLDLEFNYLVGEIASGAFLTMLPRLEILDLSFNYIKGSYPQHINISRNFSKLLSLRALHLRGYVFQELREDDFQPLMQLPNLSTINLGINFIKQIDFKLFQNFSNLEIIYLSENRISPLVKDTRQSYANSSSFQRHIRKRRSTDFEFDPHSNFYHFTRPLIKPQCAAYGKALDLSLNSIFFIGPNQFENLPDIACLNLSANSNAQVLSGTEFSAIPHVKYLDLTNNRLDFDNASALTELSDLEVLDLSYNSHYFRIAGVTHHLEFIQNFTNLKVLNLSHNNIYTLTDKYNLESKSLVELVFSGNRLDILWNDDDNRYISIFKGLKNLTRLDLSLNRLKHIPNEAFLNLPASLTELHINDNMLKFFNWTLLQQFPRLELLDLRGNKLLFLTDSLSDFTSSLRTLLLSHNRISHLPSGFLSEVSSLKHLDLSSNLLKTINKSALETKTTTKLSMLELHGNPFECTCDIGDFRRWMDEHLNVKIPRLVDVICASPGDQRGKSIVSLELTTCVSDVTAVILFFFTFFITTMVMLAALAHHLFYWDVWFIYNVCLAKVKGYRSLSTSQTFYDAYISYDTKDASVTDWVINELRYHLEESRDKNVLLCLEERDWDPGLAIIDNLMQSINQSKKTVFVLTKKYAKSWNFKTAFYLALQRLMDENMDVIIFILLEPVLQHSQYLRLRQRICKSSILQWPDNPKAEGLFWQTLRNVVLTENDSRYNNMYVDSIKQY
pIC50: −log10 of the molar value.
Quantity Kind: pIC50

>>> df
                                   compound  lt_gt_eq  recorded_result
0  C[C@@H]1CN(c2ccc(C#N)n3nccc23)C[C@@H]2c3ccc(N4C[C@H](N)[C@@](C)(O)C4)cc3CN12 [Example 109]         =             8.17
1  C[C@@H]1CN(c2ccc(C#N)c3ncccc23)C[C@@H]2c3ccc(OC[C@@H]4C[C@H](F)CN4)cc3CN12 [Example 74]         >             9.52
2  CO[C@@H]1CN(c2ccc3c(c2)CN2[C@H](C)CN(c4ccc(C#N)n5nccc45)C[C@H]32)C[C@H]1N [Example 94]         =             8.25
3  C[C@@H]1CN(c2ccc(C#N)c3ncccc23)C[C@@H]2c3ccc(N4CC5(CCN5)C4)cc3CN12 [Example 37]         >             8.49
4  C[C@@H]1CN(c2ccc(C#N)c3ncccc23)C[C@@H]2c3ccc(N4CCOC5CNCC54)cc3CN12 (stereo partly shown) [Example 52]         >             8.49
5  C[C@@H]1CN(c2ccc(C#N)n3nccc23)C[C@@H]2c3ccc(N4CC5CNCC(C4)O5)cc3CN12 [Example 107]         =             7.78
6  Cc1ccc(N2C[C@@H](C)N3Cc4cc(N[C@H]5CNC[C@H]5F)ccc4[C@H]3C2)c2cccnc12 [Example 75]         =             7.91
